Experiment: Human HepG2 cell viability assay in 384 well format
Type: toxicity, cell-based
Design: dose 125 nL, time 70.5 hour; concentration not given beside the values
Details: HepG2 cells, read-out: Inhibition
Reported cytotoxicity at 70.5 h by item:
API: value field is a number in %; no unit string.

>>> reported_result("Cc1cc(C)n(CC2CCCN2CCCS(N)(=O)=O)n1 (centres undefined)")
-8.83
>>> reported_result("O=C(c1ccsc1)N1CCN(CC(O)c2cccc(F)c2)CC1 (centres undefined)")
9.92
>>> reported_result("Cc1cnn(C2CCCN(C(=O)CN(C)c3cnccn3)C2)c1 (centres undefined)")
-2.8

Query: I'd like to know its cytotoxicity at 70.5 h. The compound in question is O=C(O)c1cc2c(nc1-c1cncnc1)CCN(C1CCOC1)CC2 (centres undefined)
Reply: 11.3

Query: I'd like to know its cytotoxicity at 70.5 h. The compound in question is CCCN1CCCN(C(=O)C(CC)N2CCCC2=O)CC1 (centres undefined)
Reply: -14.5

Query: I'd like to know its cytotoxicity at 70.5 h. The compound in question is CCc1c(C)nn(CC(=O)NC(C)c2n[nH]c(C)n2)c1C (centres undefined)
Reply: 16.1

Query: I'd like to know its cytotoxicity at 70.5 h. The compound in question is CC(O)CNc1nc(-c2cccnc2)nc2c1CCC2 (centres undefined)
Reply: 0.874
